- test settings: [M+Na]+; instrument: DT; stepped-field
test readout: collision cross section (N2) (Å²)

Before answering, review these 6 worked examples.
CCCCC/C=C\C[C@H](O)/C=C/C=C\C/C=C\CCCC(=O)O [12S-HETE] | 193.33
NC(=O)c1ccc[n+]([C@@H]2O[C@H](COP(=O)(O)OP(=O)(O)OC[C@H]3O[C@@H](n4cnc5c(=O)nc[nH]c54)[C@H](O)[C@@H]3O)[C@@H](O)[C@H]2O)c1 [Nicotinamide Hypoxanthine Dinucleotide] | 232.01
CO[C@H]1/C=C/O[C@@]2(C)Oc3c(C)c(O)c4c(c3C2=O)C(=O)/C(=C/NN2CCN(C)CC2)C(=C4O)NC(=O)/C(C)=C\C=C\[C@H](C)[C@H](O)[C@@H](C)[C@@H](O)[C@@H](C)[C@H](OC(C)=O)[C@@H]1C | 285.07
CCCCCCCC/C=C\CCCCCCCC(=O)O | 181.37
CC1(C)S[C@@H]2[C@H](NC(=O)[C@H](N)c3ccccc3)C(=O)N2[C@H]1C(=O)O | 187.93
O=C(O)[C@H]1OC(O)[C@H](O)[C@@H](O)[C@@H]1O (stereo partly drawn) [D-Glucuronate] | 153.13

1. O=C(CO)[C@@H](O)[C@H](O)CO
2. OC[C@H]1O[C@@](CO)(OC[C@@]2(O[C@H]3O[C@H](CO)[C@@H](O)[C@H](O)[C@H]3O)O[C@H](CO)[C@@H](O)[C@@H]2O)[C@@H](O)[C@@H]1O
Between item 1 and item 2 , which reported collision cross section (N2) is smaller? Which one? Tell me its label.
1
(1: 141.76 Å², 2: 205.43 Å²)

---

- test settings: [M+H]+; instrument: TW; Major Mix IMS/Tof Calibration Kit (Waters)
test readout: collision cross section (N2) (Å²)

Clc1cccc(Cl)c1NC1=NCCN1 | 144
O=C(NCC1CCCCN1)c1cc(OCC(F)(F)F)ccc1OCC(F)(F)F (stereo not given) [Flecainide] | 192.2
CCN(CC)CCNC(=O)c1cc(Cl)c(N)cc1OC [Metoclopramide] | 173.2
COc1ccc(Cc2nccc3cc(OC)c(OC)cc23)cc1OC | 185.3
CN(C)CC(c1ccc(O)cc1)C1(O)CCCCC1 (stereo not given) | 166.7
CCCCNc1ccc(C(=O)OCCN(C)C)cc1 | 173.1
CCCC(NC)C(=O)c1ccccc1 (stereo not given) | 145.7
Cc1ccc(/C(=C\CN2CCCC2)c2cccc(/C=C/C(=O)O)n2)cc1 | 193.9
Cc1ccccc1-n1c(C)nc2ccccc2c1=O | 155
CNCCC(Oc1ccc(C(F)(F)F)cc1)c1ccccc1 (stereo not given) | 176.5
N=C(N)Nc1nc(CSCCC(=N)NS(N)(=O)=O)cs1 | 165.9
CCN(CC)CCc1c[nH]c2ccccc12 | 148.6
CC(C)NCC(O)COc1ccc(COCCOC(C)C)cc1 (stereo not given) | 192.2
CCN(CC)C(=O)[C@@H]1C=C2c3cccc4[nH]cc(c34)C[C@H]2N(C)C1 | 179.5
CN1CCC[C@@H]1Cc1c[nH]c2ccc(CCS(=O)(=O)c3ccccc3)cc12 | 186.1
CC1NCCOC1c1ccccc1 (stereo not given) | 138.9
C=CCN1CC[C@]23c4c5ccc(O)c4O[C@H]2C(=O)CC[C@@]3(O)[C@H]1C5 | 171.8
CC(C)=CCN1CCC2(C)c3cc(O)ccc3CC1C2C (stereo not given) | 173.5
CCC(Br)(CC)C(=O)NC(N)=O | 139.8
COc1cc(CCN)c(OC)cc1I | 157.7

---

- test settings: [M+Na]+; instrument: TW; calibrated with polyalanine and drug standards
test readout: collision cross section (N2) (Å²)

CC[C@H](C)[C@H]1O[C@]2(C=C[C@@H]1C)C[C@@H]1C[C@@H](C/C=C(\C)[C@@H](O[C@H]3C[C@H](OC)[C@@H](O[C@H]4C[C@H](OC)[C@@H](O)[C@H](C)O4)[C@H](C)O3)[C@@H](C)/C=C/C=C3\CO[C@@H]4[C@H](O)C(C)=C[C@@H](C(=O)O1)[C@]34O)O2 [Abamectin B1A] | 290.5

I. C[C@H]1[C@H](C)CC[C@]2(C(=O)O)CC[C@]3(C)C(=CC[C@@H]4[C@@]5(C)C[C@@H](O)[C@H](O)[C@@](C)(CO)[C@@H]5CC[C@]43C)[C@H]12 [ASIATIC ACID]
II. CC(=O)NCCCCCC(=O)O [ACEXAMIC ACID]
Between item I and item II , which reported collision cross section (N2) is smaller? Which one? Tell me its label.
II
(II: 141.4 Å², I: 233.5 Å²)

---

- test settings: [M+H]+; instrument: TW
test readout: collision cross section (N2) (Å²)

CC(=O)c1ccc2c(c1)N(CCCN(C)C)c1ccccc1S2 [Acetopromazine] | 160.5
O=C2\C(=C(/N(N2c1ccccc1)C)C)C(C)C [Propyphenazone] | 150
CC(C(=O)O)c1ccc2c(c1)[nH]c1ccc(Cl)cc12 (centres undefined) [Carprofen] | 156.1
CON(C)C(=O)Nc1ccc(Br)cc1 [Metobromuron] | 145.41
O=C(NC(=O)c1c(F)cccc1F)Nc1ccc(OC(F)(F)C(F)OC(F)(F)F)c(Cl)c1 (centres undefined) [Novaluron] | 196.35
O=[N+]([O-])/N=C1\NCCN1Cc1ccc(Cl)nc1 [Imidacloprid] | 149.62
CC1C(c2ccc(Cl)cc2)SC(=O)N1C(=O)NC1CCCCC1 (centres undefined) [Hexythiazox] | 183.83
O=C\1\C=C/[C@]3(/C(=C/1)CC[C@H]4[C@@H]2CCC(=O)[C@]2(CC[C@H]34)C)C [1,4-androstadiene-3,17-dione] | 166.5
CCCCOC(=O)N(C)SN(C)C(=O)Oc1cccc2c1OC(C)(C)C2 [Furathiocarb] | 190.73

---

- test settings: [M+H]+; instrument: TW
test readout: collision cross section (N2) (Å²)

CC(C)(C)NCC(O)c1cc(Cl)c(N)c(Cl)c1 (centres undefined) [Clenbuterol] | 159.2
Nc1c(Cl)c(F)nc(OCC(=O)O)c1Cl [Fluroxypyr] | 140.69
O=C(NC(=O)c1c(F)cccc1F)Nc1cc(Cl)c(F)c(Cl)c1F [Teflubenzuron] | 171.81
CCc1cccc(C)c1N(C(=O)CCl)C(C)COC (centres undefined) [Metolachlor] | 158.23
C[C@H]1C[C@H]2[C@@H]3CCC4=CC(=O)C=C[C@]4(C)[C@@]3(Cl)[C@@H](O)C[C@]2(C)[C@@]1(O)C(=O)CO [Beclomethasone] | 189.2
Cc1cc(NS(=O)(=O)c2ccc(N)cc2)no1 [Sulfamethoxazole] | 146.3
Nc1cnn(-c2ccccc2)c(=O)c1Cl [Chloridazon] | 141.59
CC1=C(C(=O)Nc2ccccc2)SCCO1 [Carboxin] | 149.35
Cc1nnc(-c2ccccc2)c(=O)n1N [Metamitron] | 140.93

---

- test settings: [M+H]+; instrument: TW; calibrated with polyalanine and drug standards
test readout: collision cross section (N2) (Å²)

Before answering, review these 3 worked examples.
COc1cc2ccc(=O)oc2c2ccoc12 [SPHONDIN] | 139.9
O=c1cc(-c2ccccc2)oc2c(O)c(O)ccc12 [7,8-DIHYDROXYFLAVONE] | 152
CC[C@H]1CN2CC[C@H]1C[C@@H]2[C@@H](O)c1ccnc2ccc(OC)cc12 [HYDROQUINIDINE] | 176.7

a. CC[C@]12CCCN3CCc4c(n(c5ccccc45)[C@@](O)(C(=O)OC)C1)[C@@H]32 [VINCAMINE]
b. O=C(O)C1CCCNC1 (stereo not drawn) [NIPECOTIC ACID]
Lab note: check whether a or b shows the higher recorded collision cross section (N2). Which one? Tell me its label.
a
(a: 180.9 Å², b: 124.6 Å²)

1. O=C(Nc1ccccc1)c1ccccc1O [SALICYLANILIDE]
2. NC(=O)c1ccc[n+]([C@@H]2O[C@H](COP(=O)([O-])OP(=O)(O)OC[C@H]3O[C@@H](n4cnc5c(N)ncnc54)[C@H](O)[C@@H]3O)[C@@H](O)[C@H]2O)c1 [NADIDE]
Lab note: check whether 1 or 2 shows the higher recorded collision cross section (N2). Which one? Tell me its label.
2

---

- test settings: [M+H]+; instrument: DT; single field, calibrated with ESI Low Concentration Tuning Mix (Agilent)
test readout: collision cross section (N2) (Å²)

Before answering, review these 3 worked examples.
CC(=O)NCCCCN | 128.6
CN(C)C(N)=NCCC[C@H](N)C(=O)O | 143.9
Nc1ccn(C2O[C@H](CO)[C@H]3OP(=O)(O)O[C@@H]23)c(=O)n1 (stereo not given in full) [CYTIDINE 2',3'-CYCLIC PHOSPHATE] | 163.3

I. NC(=O)NCCC[C@H](N)C(=O)O
II. Nc1ncnc2c1ncn2[C@@H]1O[C@H](COP(=O)(O)OP(=O)(O)O[C@H]2O[C@H](CO)[C@@H](O)[C@H](O)[C@H]2O)[C@@H](O)[C@H]1O
Lab note: check whether I or II shows the higher recorded collision cross section (N2). Which one? Tell me its label.
II
(II: 216.1 Å², I: 137.7 Å²)
